Target or system: Voltage-gated inwardly rectifying potassium channel KCNH2 (Homo sapiens) (UniProt Q12809)
Sequence (Q12809 whole entry, looked up): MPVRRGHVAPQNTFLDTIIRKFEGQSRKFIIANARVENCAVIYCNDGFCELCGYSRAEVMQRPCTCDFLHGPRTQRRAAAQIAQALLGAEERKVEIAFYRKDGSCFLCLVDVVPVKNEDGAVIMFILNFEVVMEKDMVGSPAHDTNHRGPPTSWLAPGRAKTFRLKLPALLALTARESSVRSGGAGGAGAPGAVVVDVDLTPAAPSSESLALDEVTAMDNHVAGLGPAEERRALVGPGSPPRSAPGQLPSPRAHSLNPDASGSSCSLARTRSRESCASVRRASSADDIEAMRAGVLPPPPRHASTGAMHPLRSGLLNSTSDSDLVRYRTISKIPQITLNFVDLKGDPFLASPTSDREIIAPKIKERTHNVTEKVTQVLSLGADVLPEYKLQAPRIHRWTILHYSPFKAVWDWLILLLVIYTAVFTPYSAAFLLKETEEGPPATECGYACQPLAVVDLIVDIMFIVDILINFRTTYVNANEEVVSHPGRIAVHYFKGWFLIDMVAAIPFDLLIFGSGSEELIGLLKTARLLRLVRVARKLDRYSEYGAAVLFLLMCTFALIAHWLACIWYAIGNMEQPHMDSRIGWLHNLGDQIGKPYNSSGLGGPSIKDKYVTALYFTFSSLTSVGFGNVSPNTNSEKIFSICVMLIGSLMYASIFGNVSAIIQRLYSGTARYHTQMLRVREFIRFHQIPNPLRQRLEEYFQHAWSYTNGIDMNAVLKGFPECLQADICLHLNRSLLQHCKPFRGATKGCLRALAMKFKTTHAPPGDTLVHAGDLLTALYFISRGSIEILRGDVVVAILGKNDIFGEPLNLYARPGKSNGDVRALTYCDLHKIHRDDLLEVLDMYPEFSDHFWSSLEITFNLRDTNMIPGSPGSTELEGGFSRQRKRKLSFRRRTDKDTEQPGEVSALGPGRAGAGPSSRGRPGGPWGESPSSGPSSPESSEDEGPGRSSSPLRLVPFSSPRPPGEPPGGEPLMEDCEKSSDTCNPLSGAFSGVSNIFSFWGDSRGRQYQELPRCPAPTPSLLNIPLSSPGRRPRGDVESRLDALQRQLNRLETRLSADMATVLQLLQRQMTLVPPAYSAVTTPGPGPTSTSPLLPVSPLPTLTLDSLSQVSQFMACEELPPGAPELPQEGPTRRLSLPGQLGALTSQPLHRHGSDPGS
Assay method text: hERG protection against dofetilide inhibition, confirmation, cell-based, thallium flux, duplicate retest, dofetilide IC70 (AID 1835)
Measurement setup: hERG cell line, FluxOR thallium flux, dofetilide-blocked; at 10 µM
Screen size: about 2,400 compounds; about 750 (31%) were called active.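 Rule for the calls: active = median signal gain over dofetilide-blocked control wells reaching their mean plus 3 SD, so readout 1 at least 0; inactive = the rest.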 Some of the results follow.
Choose one outcome from this list and give only that: active, inactive

Problem: // param item: Cc1cc(S(=O)(=O)N2CCOCC2)ccc1OCC(=O)NCc1ccco1 ; yields the recorded call
Result: inactive

Problem: // param item: Cc1sc2nc(C(C)C)nc(SCC(=O)NCc3ccco3)c2c1C ; yields the recorded call
Result: active

Problem: // param item: CCn1c(SCC(=O)NC(=O)NCc2ccco2)nc2sc(C)c(C)c2c1=O ; yields the recorded call
Result: active

Problem: // param item: Cc1ccccc1C(=O)NC(=S)Nc1sc2c(c1C#N)CCC(C)C2 (stereo unspecified) ; yields the recorded call
Result: inactive

Problem: // param item: COC(=O)c1ccc(C2C(C#N)=C(N)Oc3cc(O)ccc32)cc1 (stereo unspecified) ; yields the recorded call
Result: active

Problem: // param item: CCC1CCc2c(sc(NC(=O)C3CC=CCC3C(=O)O)c2C#N)C1 (stereo unspecified) ; yields the recorded call
Result: active

Problem: // param item: Cc1ccc(-n2ncc3c(SCC(=O)NNC(=O)c4ccco4)ncnc32)cc1 ; yields the recorded call
Result: inactive

Problem: // param item: O=[N+]([O-])C1=CC=C2C(=NC3(CCCCC3)N2O)C1=NC1CCCCC1 ; yields the recorded call
Result: inactive

Problem: // param item: O=C(CN1CCN(c2ccccc2O)CC1)NC(=O)NCc1ccco1 ; yields the recorded call
Result: inactive

Problem: // param item: CCOC(=O)C1=C(N)Oc2cc(O)ccc2C1c1cccnc1 (stereo unspecified) ; yields the recorded call
Result: inactive

Problem: // param item: COc1cc(C2C(C#N)=C(N)Oc3c2ccc2ccccc32)ccc1OCC(=O)Nc1ccc(C)cc1 (stereo unspecified) ; yields the recorded call
Result: inactive
